Attribution: paper PMC3530927

- target under test: UniProt:O43526
- procedure summary: KCNQ2 automated patch clamp assay
- Type: cell-based

| compound | KCNQ2 activity (in words) |
| --- | --- |
| O=C(Cc1cccc(Cl)c1)Nc1ccccc1N1CCCCC1 | loss of activity |
| CCC(C(=O)Nc1ccccc1N1CCCCC1)c1ccccc1 (centres unmarked) | loss of activity |
| O=C(Nc1ccccc1N1CCCC1)C1CCOc2ccccc21 (centres unmarked) | not tolerated |
| CC(C)C(C(=O)Nc1ccccc1N1CCCC1)c1ccccc1 (centres unmarked) | not tolerated |
| O=C(Nc1ccccc1N1CCCC1)C1(c2ccccc2)CC1 | not tolerated |
| CC(C)(C(=O)Nc1ccccc1N1CCCC1)c1ccccc1 | not tolerated |
